The measurements presented in this section are drawn from the RNAGym collection of RNA variant scans (doi:10.7554/elife.90254).

B1: LINE1-full (parent)
chain: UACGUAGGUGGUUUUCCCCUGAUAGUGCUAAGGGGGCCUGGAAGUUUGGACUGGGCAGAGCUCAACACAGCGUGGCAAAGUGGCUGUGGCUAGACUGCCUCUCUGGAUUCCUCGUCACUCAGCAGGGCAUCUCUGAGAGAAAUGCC

# Variants of: B1
# PROTOCOL_DETAILS: self-cleavage, relative activity (ratio to wild type); higher = more cleavage; in vitro, sequencing; the parent is a self-cleaving ribozyme
MEASURED_ENDPOINT: self-cleavage

# self-cleavage of UACGUAGGUGGUUUUCCCCUGAUAGUGCUAAUGGGGCCUGGAAGUUUGGACUGGGCAGAGCUCAACACAGCGUGGCAGAGUGGCUGUGGCUAGACUGCCUCUCUGGAUUCCUCGUCACUCAGCAGGGCAUCUCUGAGAGAAAUGCC [G32U A78G] = 0.94

# self-cleavage of UACGUAGGUGGUUUUCCCCUGAUAGUGCUAAGGGGGCCUGGAAGUUUGGACCGGGCAGAGCUCAACACAGCGUGGCAAAGUGGCUGUGGCUAGACUGCCCCUCUGGAUUCCUCGUCACUCAGCAGGGCAUCUCUGAGAGAAAUGCC [U52C U100C] = 2.25

# self-cleavage of UACGUAGGUGGUUUUCCCCUGAUAGUGCUAAGGGGGCCUGGAAGUUUGGACUGGGCAGAGCUCAACACAGCGUGGCAAAGUGGCUGUGGCUAGACUGCCUCUCAGGGUUCCUCGUCACUCAGCAGGGCAUCUCUGAGAGAAAUGCC [U104A A107G] = 0.9

# self-cleavage of UACGUAGGUGGUUUUCCCCUGAUAGUGCUAAGGGGGCCUGGAAGUUUGGACUGGGCAGAGCUCAACACAGCGUGGCAAAGUGGCUGUGGCUAGACUGCCUCUCUGGAUUCCUCGUCACCCAUCAGGGCAUCUCUGAGAGAAAUGCC [U119C G122U] = 2.35

# self-cleavage of UACGUAGGUGGUUUUCCCCUGAUAGUGCUAAGGGGGCCUGGAGGUUUGGACUGGGCAGAGCUGAACACAGCGUGGCAAAGUGGCUGUGGCUAGACUGCCUCUCUGGAUUCCUCGUCACUCAGCAGGGCAUCUCUGAGAGAAAUGCC [A43G C63G] = 0.1

# self-cleavage of UACGUAGGUGGUUUUCCCCUGAUAGUGCUAAGGGGGCCUGGAAGUUUGGACUGGGCAGAGCUCAACACAGCGUGGCAAAGUGGCUGUGGCUAGACUACCUCUCAGGAUUCCUCGUCACUCAGCAGGGCAUCUCUGAGAGAAAUGCC [G97A U104A] = 0.06

# self-cleavage of UACGUAGGUGGUUUUCCCCUGAUAGAGCUAAGGGGGCCUGGAAAUUUGGACUGGGCAGAGCUCAACACAGCGUGGCAAAGUGGCUGUGGCUAGACUGCCUCUCUGGAUUCCUCGUCACUCAGCAGGGCAUCUCUGAGAGAAAUGCC [U26A G44A] = 1

# self-cleavage of UACGUAGGUGGUUUUCCCCUGAUAGUGCUAAGGGGGCCUGGAAGUUUGGACUGGGCUGAGCUCAACACAGCGUGGCAAAGUGUCUGUGGCUAGACUGCCUCUCUGGAUUCCUCGUCACUCAGCAGGGCAUCUCUGAGAGAAAUGCC [A57U G83U] = 0.02

# self-cleavage of UAUGUAGGUGGUUUUCCCCUGAUAGUGCUAAGGGGGCCUGGAAGUUUGGACUGGGCAGAGCUCAACACAGCGUGGCAAAGUGGCUGUGGCUAGACUGCCUCUCUGGUUUCCUCGUCACUCAGCAGGGCAUCUCUGAGAGAAAUGCC [C3U A107U] = 1.17

# self-cleavage of UACGUAGGUGGUUUUCCCCUGACAGUGCUAAGGGGGCCUGGAAGUUUGGACUGGGCAGAGCUCAACACAGCGUGGCAAAGUGGCUGUGGCUAGACUGCCUCUCUGGAUUCCUCGUCACUCAGCGGGGCAUCUCUGAGAGAAAUGCC [U23C A124G] = 1.52

# self-cleavage of UACGUAGGUGGUUUUCCCCUGAUAGUGCUAAGGGGGCCUGGUAGUUUGGACUGGGCAGAGCUCAACACAGCGUGGCAAAGUGGCUGUGGCUAGACUGCCUCUCUGGAUUCCUCGUCUCUCAGCAGGGCAUCUCUGAGAGAAAUGCC [A42U A117U] = 1.28
